TEST_PROTOCOL: Acute toxicity
Set-up: species or system mice
MEASUREMENT_CONDITIONS: mouse, in vivo, iv, single dose, mortality within 7 days
Experimental: The LD50 values were determined by the standard method via the mortality occurring within 7 days in NMRI (Naval Medical Research Institute) mice (6 animals per dose) after a single intraperitoneal (i.p.) or intravenous (i.v.) dose.
For each record, write down the corresponding LD50 at 168 h.

Task: Recorded LD50 at 168 h of CC(C)(C)C1=NOC(P(C)(=O)O)C1 (stereo not drawn) , please.
Output: > 200 mg/kg

Task: Given the entry CP(C)(=O)C1CC(c2ccccc2)=NO1 (stereo not drawn) , report its measured LD50 at 168 h.
Output: > 200 mg/kg

Task: Return reported LD50 at 168 h; argument: CCCC1=NOC(P(=O)(O)O)C1 (stereo not drawn)
Output: > 200 mg/kg

Task: Tell me the measured LD50 at 168 h of CP(=O)(O)C1CC(Cc2ccccc2)=NO1 (stereo not drawn) , please.
Output: > 200 mg/kg

Task: Which LD50 at 168 h is listed for CCOC(=O)C1=NOC(P(C)(=O)O)C1 (stereo not drawn) ?
Output: > 100 mg/kg

Task: Need LD50 at 168 h of CP(=O)(NCC(=O)OCc1ccccc1)C1CC(c2ccccc2)=NO1 (stereo not drawn) , thanks.
Output: 50 to 100 mg/kg

----------
TARGET_OR_TEST_SYSTEM: aminopeptidase B (Homo sapiens)
Sequence (Q9H4A4 whole entry, species assumed): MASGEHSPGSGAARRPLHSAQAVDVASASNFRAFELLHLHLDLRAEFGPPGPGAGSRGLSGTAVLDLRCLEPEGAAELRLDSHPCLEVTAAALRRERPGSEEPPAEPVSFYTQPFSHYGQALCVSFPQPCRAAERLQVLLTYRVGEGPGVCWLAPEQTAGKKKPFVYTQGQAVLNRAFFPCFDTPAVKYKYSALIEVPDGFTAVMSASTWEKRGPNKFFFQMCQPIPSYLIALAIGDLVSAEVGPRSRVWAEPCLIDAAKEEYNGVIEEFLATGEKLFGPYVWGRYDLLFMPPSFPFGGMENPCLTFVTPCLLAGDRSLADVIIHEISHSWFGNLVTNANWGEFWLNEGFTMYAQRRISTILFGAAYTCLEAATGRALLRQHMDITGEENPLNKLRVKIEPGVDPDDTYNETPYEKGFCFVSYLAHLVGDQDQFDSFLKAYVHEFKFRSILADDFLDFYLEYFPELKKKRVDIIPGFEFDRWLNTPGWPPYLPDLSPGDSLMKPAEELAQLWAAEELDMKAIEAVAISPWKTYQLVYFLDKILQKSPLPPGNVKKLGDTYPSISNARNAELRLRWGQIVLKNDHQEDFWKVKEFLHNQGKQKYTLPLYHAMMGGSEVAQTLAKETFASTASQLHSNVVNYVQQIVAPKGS
TEST_PROTOCOL: Inhibition of aminopeptidase B
Format: biochemical
MEASUREMENT_TYPE: pIC50
Notebook: values listed as pIC50 are -log10 of the concentration (mol/L).

Task: pIC50 of COP(C)(=O)C1CC(c2ccccc2)=NO1 (stereo not shown) on aminopeptidase B (Homo sapiens)?
Output: 3.38

----------
Please respond with reported LD50 at 168 h for every item in the list.
TEST_PROTOCOL: Acute toxicity
Set-up: species or system mice
MEASUREMENT_CONDITIONS: mouse, in vivo, iv, single dose, mortality within 7 days

Task: Request the reported LD50 at 168 h associated with "O=P(O)(O)c1cc(-c2ccncc2)no1"
Output: > 200 mg/kg

Task: Give the measured LD50 at 168 h of "O=P(O)(O)c1cc(-c2ccccc2)no1" .
Output: > 200 mg/kg

Task: Reported LD50 at 168 h for O=P(O)(O)C1CC(c2ccccc2)=NO1 (racemic) [Example 34] : what is it?
Output: 200 to 300 mg/kg

Task: Quick check: LD50 at 168 h of O=[N+]([O-])c1ccc(C2=NOC(P(=O)(O)O)C2)cc1 (centres unmarked) ?
Output: > 100 mg/kg

Task: Value lookup for LD50 at 168 h; key = CCOP(=O)(O)C1CC(c2ccccc2)=NO1 (centres unmarked)
Output: > 200 mg/kg

Task: For the compound O=P(O)(O)C1CC(c2ccc(Cl)cc2)=NO1 (centres unmarked) , what LD50 at 168 h is on record?
Output: > 200 mg/kg

Task: Could you share which LD50 at 168 h value was measured for O=P(O)(O)C1CC(Cc2ccccc2)=NO1 (centres unmarked) ?
Output: > 200 mg/kg

Task: Consider the compound shown here: "O=P(O)(O)c1cc(-c2ccccn2)no1" What is its recorded LD50 at 168 h?
Output: > 200 mg/kg

Task: Please give the measured LD50 at 168 h for this compound: CC(C)(C)C1=NOC(P(=O)(O)O)C1 (centres unmarked)
Output: > 200 mg/kg

Task: Which LD50 at 168 h is listed for O=P(O)(O)C1CC(c2ccccc2)=NO1 (centres unmarked) [Example 35] ?
Output: > 200 mg/kg

Task: What does the record list as LD50 at 168 h for CC(C)(C)C1=NOC(CP(C)(=O)O)C1 (centres unmarked) ?
Output: > 100 mg/kg
